Data provenance is ChEMBL document CHEMBL5321287.

- measurement-notes: Oral bioavailability in Sprague-Dawley rat at 10 mg/kg administered via gavage by LC-MS analysis
- Format: ADME, organism-based
- test-context: in vivo
measured-quantity: bioavailability

What value of bioavailability has been reported for the following molecule? "Cc1ccc(Nc2nccc(N(C)c3ccc4c(C)n(C)nc4c3)n2)cc1-c1nc2c(C(N)=O)cccc2[nH]1"
60.1%

* * *

- Test system: MDA-MB-436
- measurement-notes: cells
- test-context: Homo sapiens
measured-quantity: IC50

For Cc1ccc(Nc2nccc(N(C)c3ccc4c(C)n(C)nc4c3)n2)cc1S(N)(=O)=O [PAZOPANIB] , what is its reported IC50?
> 10 µM

* * *

- measurement-notes: AUC (0 to infinity) in Sprague-Dawley rat at 1 mg/kg, iv by LC-MS analysis
- Assay type: ADME, organism-based
- Parameters: dose 1 mg/kg, route iv
- test-context: in vivo
measured-quantity: AUC(0-inf) (ng·h/mL)
Express the result in ng·h/mL but write the number alone.

For the compound "Cc1ccc(Nc2nccc(N(C)c3ccc4c(C)n(C)nc4c3)n2)cc1-c1nc2c(C(N)=O)cccc2[nH]1" , what AUC(0-inf) is on record?
821

* * *

Measured IC50 of individual entries
- tested-system: Vascular endothelial growth factor receptor 2 (Homo sapiens, UniProt P35968)
- Sequence (P35968 whole entry): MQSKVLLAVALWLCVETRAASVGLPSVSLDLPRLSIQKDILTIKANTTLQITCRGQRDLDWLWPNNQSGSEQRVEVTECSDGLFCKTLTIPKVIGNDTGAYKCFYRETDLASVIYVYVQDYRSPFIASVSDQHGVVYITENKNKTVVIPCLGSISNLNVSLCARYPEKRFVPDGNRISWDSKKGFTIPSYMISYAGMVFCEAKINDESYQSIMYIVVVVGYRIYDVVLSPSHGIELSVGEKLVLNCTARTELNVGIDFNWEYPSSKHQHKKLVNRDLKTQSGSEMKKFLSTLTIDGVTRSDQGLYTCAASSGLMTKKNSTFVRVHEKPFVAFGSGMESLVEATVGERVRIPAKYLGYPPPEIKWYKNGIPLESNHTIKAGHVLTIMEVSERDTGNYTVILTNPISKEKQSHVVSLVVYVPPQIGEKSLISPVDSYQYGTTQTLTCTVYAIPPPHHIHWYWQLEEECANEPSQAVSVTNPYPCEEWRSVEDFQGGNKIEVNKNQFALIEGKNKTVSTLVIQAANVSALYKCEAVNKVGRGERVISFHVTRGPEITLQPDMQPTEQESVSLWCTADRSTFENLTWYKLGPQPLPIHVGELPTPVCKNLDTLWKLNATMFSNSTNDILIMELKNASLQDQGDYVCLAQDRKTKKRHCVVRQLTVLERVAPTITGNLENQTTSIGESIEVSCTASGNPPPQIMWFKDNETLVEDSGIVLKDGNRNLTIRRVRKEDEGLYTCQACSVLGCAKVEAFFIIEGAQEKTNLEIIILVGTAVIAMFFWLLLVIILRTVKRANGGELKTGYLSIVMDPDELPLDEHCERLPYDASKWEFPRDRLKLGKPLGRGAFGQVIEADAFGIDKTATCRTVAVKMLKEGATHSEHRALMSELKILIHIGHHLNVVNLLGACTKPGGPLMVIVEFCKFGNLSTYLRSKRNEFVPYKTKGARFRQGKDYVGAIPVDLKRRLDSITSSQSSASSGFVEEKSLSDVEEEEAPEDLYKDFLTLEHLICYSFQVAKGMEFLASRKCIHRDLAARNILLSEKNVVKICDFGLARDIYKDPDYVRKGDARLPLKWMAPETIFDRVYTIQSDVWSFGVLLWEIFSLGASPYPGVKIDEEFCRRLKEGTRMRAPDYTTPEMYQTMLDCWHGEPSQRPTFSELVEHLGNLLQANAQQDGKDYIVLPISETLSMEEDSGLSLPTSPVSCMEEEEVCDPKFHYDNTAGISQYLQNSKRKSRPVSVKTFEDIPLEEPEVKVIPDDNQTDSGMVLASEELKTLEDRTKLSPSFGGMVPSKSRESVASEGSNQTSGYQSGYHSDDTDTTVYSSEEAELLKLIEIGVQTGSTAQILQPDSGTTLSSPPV
Write down the numeric answer in nM and omit the unit.

Please review the entries below; each comes with its answer.
>>> assay_value("Cc1cc(Nc2nccc(N(C)c3ccc4c(C)n(C)nc4c3)n2)cnc1-c1nc2c(C(N)=O)cccc2[nH]1")
235
>>> assay_value("COc1cc(Nc2nccc(N(C)c3ccc4c(C)n(C)nc4c3)n2)ccc1-c1nc2cc(F)c(F)cc2[nH]1")
165
>>> assay_value("Cc1c2ccc(N(C)c3ccnc(Nc4ccc(-c5nc6c(C(N)=O)cccc6[nH]5)cc4F)n3)cc2nn1C")
254

# get_value(readout='IC50', item= "Cc1c2ccc(N(C)c3ccnc(Nc4ccc(-c5nc6c(C(N)=O)cccc6[nH]5)c(C(F)(F)F)c4)n3)cc2nn1C" )
267

Now try "CN(c1ccc2ncccc2c1)c1ccnc(Nc2ccc(-c3nc4c(C(N)=O)cccc4[nH]3)cc2)n1" .
659

Lookup "Cc1c2ccc(N(C)c3ccnc(Nc4cccc(-c5nc6cc(F)c(F)cc6[nH]5)c4)n3)cc2nn1C"
190

Follow-up item: "Cc1c2ccc(N(C)c3ccnc(Nc4ccc(-c5nc6ccccc6[nH]5)c(Cl)c4)n3)cc2nn1C"
188

* * *

- measurement-notes: Apparent volume of distribution in Sprague-Dawley rat at 1 mg/kg, iv by LC-MS analysis
- Type: ADME, organism-based
- test-context: in vivo, read-out: Vz
measured-quantity: Vd (L/kg)
Reply with just the number (in L/kg).

I am curious: what Vd value has been reported for "Cc1ccc(Nc2nccc(N(C)c3ccc4c(C)n(C)nc4c3)n2)cc1-c1nc2c(C(N)=O)cccc2[nH]1" ?
2.2

* * *

- measurement-notes: AUC (0 to t) in Sprague-Dawley rat at 1 mg/kg, iv by LC-MS analysis
- Type: ADME, organism-based
- Set-up: dose 1 mg/kg, route iv
- test-context: in vivo
measured-quantity: AUC(0-t) (ng·h/mL)
The reply should contain only the number, in ng·h/mL.

Data request, read-out AUC(0-t), for "Cc1ccc(Nc2nccc(N(C)c3ccc4c(C)n(C)nc4c3)n2)cc1-c1nc2c(C(N)=O)cccc2[nH]1"
815

* * *

- measurement-notes: AUC (0 to infinity) in Sprague-Dawley rat at 10 mg/kg, po via gavage by LC-MS analysis
- Assay type: ADME, organism-based
- Design: dose 10 mg/kg, route po
- test-context: in vivo
measured-quantity: AUC(0-inf) (ng·h/mL)
Output spec: scalar in ng·h/mL, unitless text.

Form field: reported AUC(0-inf) of "Cc1ccc(Nc2nccc(N(C)c3ccc4c(C)n(C)nc4c3)n2)cc1-c1nc2c(C(N)=O)cccc2[nH]1"
4920

* * *

Listed next: entries and their corresponding IC50.
- System: MDA-MB-231
- measurement-notes: Antiproliferative activity against human MDA-MB-231 cells assessed as cell growth inhibition

Below are worked cases with known answers.
>>> assay_value("COc1ccc(-c2nc3c(C(N)=O)cccc3[nH]2)cc1Nc1nccc(N(C)c2ccc3c(C)n(C)nc3c2)n1")
"> 10 µM"
>>> assay_value("Cc1cc(N(C)c2ccc3c(C)n(C)nc3c2)nc(Nc2ccc(-c3nc4c(C(N)=O)cccc4[nH]3)cc2)n1")
"> 10 µM"
>>> assay_value("CN(c1ccc(N2CCOCC2)cc1)c1ccnc(Nc2ccc(-c3nc4c(C(N)=O)cccc4[nH]3)cc2)n1")
"9.72 µM"
>>> assay_value("Cc1c2ccc(N(C)c3ccnc(Nc4ccc(-c5nc6ccccc6[nH]5)c(C(F)(F)F)c4)n3)cc2nn1C")
"> 10 µM"
>>> assay_value("Cc1c2ccc(N(C)c3ccnc(Nc4ccc(-c5ccc(-c6nc7c(C(N)=O)cccc7[nH]6)cc5)cc4)n3)cc2nn1C")
"> 10 µM"

Field request: IC50 | item: "O=C(c1cc(Cc2n[nH]c(=O)c3ccccc23)ccc1F)N1CCN(C(=O)C2CC2)CC1"
> 10 µM
